system: Spodoptera littoralis (Egyptian Cotton Leaf Worm); test: Example B6: Activity against Spodoptera littoralis, sprayed cotton leaf discs on agar; format: in vivo; conditions: foliar, 72 h, application rate 200 ppm, L1 larvae, assessed 3 days after infestation, read-out: control (at least one of mortality, anti-feedant effect, growth inhibition)
The compounds listed here are annotated with their percent control (mortality, anti-feedant effect or growth inhibition) at 200 ppm.

Examples from the recorded data:
> print(dat)
                                   compound                               measured.on  observed.value
1  CCS(=O)(=O)c1c(N2Cc3cc4c(cc3C2=O)OC(F)(F)O4)nn2cc(C3CC3)ccc12  Spodoptera littoralis (Egyptian Cotton Leaf Worm)           ≥ 80%
2  CCS(=O)(=O)c1c(N2Cc3cc4c(cc3C2=O)OC(F)(F)O4)nn2cc(Br)ccc12  Spodoptera littoralis (Egyptian Cotton Leaf Worm)           ≥ 80%
3  CCS(=O)(=O)c1c(N2Cc3cc4c(cc3C2=O)OC(F)(F)O4)nc2ccc(C(F)(F)F)cn12 [P1]  Spodoptera littoralis (Egyptian Cotton Leaf Worm)           ≥ 80%

Okay, now this compound:
Entry under review: CCS(=O)(=O)c1c(N2Cc3cc4c(cc3C2=O)OC(F)(F)O4)nn2ccc(Cl)cc12 . Reported percent control (mortality, anti-feedant effect or growth inhibition) at 200 ppm?
≥ 80%
